Attribution: PubChem BioAssay

- experimental-details: antimalarial activity against Dd2 strain (AID 2302)
- assay-context: P. falciparum Dd2 in RBCs, LDH growth readout, 72 h; at 2 µM
The source made the active and inactive calls.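 Rule for the calls: active = growth inhibition above 50% at the single 2 µM test dose, taken to imply half-maximal potency below 2 µM; inactive = the rest.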
Select the correct class. Options are active, inactive and nothing else.

compound: Cc1cc(N[C@@H](Cc2ccccc2)C(=O)NCCOc2ccccc2)nc(NCCc2cccs2)n1
classification: inactive
//
compound: COc1ccc(OCCn2cc(C(=O)c3ccco3)c3ccccc32)cc1
classification: active

Test call, this compound: c1ccc(CCNCc2ccc(-c3ccc(CNc4ccc5ncccc5c4)cc3)cc2)cc1 inactive

Please share the test call associated with CC(C)CCNCc1ccc(OCc2ccccc2COc2ccc(CNCCC(C)C)cc2I)c(I)c1 . active

Recorded test outcome, item Cc1ccccc1C1CCN(c2ccc(C(=O)Nc3ccccc3)cn2)CC1 active

Tell me the recorded outcome of this test for CN(C)C(CNC(=O)c1cc(-c2ccncc2)c(-c2ccc(NC(=O)Nc3cccc(Cl)c3)cc2)o1)c1ccccc1 (centres undefined) . active

Record lookup: outcome of this test for NCC1CCCN1Cc1ccc(-c2ccc(-c3nc4ccc(C(F)(F)F)cc4[nH]3)s2)cc1 (centres undefined) ? active
